- Tested on: rodent lifetime carcinogenesis bioassay, tumor incidence TD50
- ASSAY REMARKS: carcinogenic potency in animals, long-term in vivo studies, CPDB compilation (AID 1745844)
- CONDITION: rat; strain Fischer 344; males; in drinking water; site: pancreas, exocrine; lesion: malignant tumor; dosed 111 weeks; study length 111 weeks
PARAMETER MEASURED: TD50

Considering "CN(CCCC(=O)c1cccnc1)N=O" , its TD50 with rodent lifetime carcinogenesis bioassay, tumor incidence TD50 was recorded as 0.975 mg/kg/day

----------
- Tested on: rodent lifetime carcinogenesis bioassay, tumor incidence TD50
- ASSAY REMARKS: carcinogenic potency in animals, long-term in vivo studies, CPDB compilation (AID 1745844)
- CONDITION: rat; strain Fischer 344; females; by gavage; site: forestomach; lesion: one or several types; types not named; dosed 30 weeks; study length 104 weeks
PARAMETER MEASURED: TD50

* C=CCN(N=O)C(N)=O | 0.476 mg/kg/day

Okay, now this compound:
Reading of TD50 for "NC(=O)N(CCCO)N=O" with rodent lifetime carcinogenesis bioassay, tumor incidence TD50: 1.27 mg/kg/day

----------
- Tested on: rodent lifetime carcinogenesis bioassay, tumor incidence TD50
- ASSAY REMARKS: carcinogenic potency in animals, long-term in vivo studies, CPDB compilation (AID 1745844)
- CONDITION: mouse; strain Swiss; males; i.p.; site: any site (literature study); lesion: several types; types named in the paper; dosed 26 weeks; study length 78 weeks
PARAMETER MEASURED: TD50
The reply should read as a number followed by its unit.

The following compounds have reported results that may help.
* CN(C)N=Nc1nc[nH]c1C(N)=O | 0.813 mg/kg/day
* CNNCc1ccc(C(=O)NC(C)C)cc1 | 1.15 mg/kg/day

The reported TD50 of the compound "O[C@@H]([C@H](O)[C@H](O)CBr)[C@H](O)CBr" was 6.03 mg/kg/day

Form field TD50, entry "O[C@H]([C@H](O)[C@@H](O)CBr)[C@H](O)CBr" : 12.7 mg/kg/day

----------
- System: rodent lifetime carcinogenesis bioassay, tumor incidence TD50
- ASSAY REMARKS: carcinogenic potency in animals, long-term in vivo studies, CPDB compilation (AID 1745844)
- CONDITION: rat; strain Norwegian albino; males; in feed; site: urinary bladder; lesion: transitional-cell carcinoma; dosed 58 weeks; study length 58 weeks
PARAMETER MEASURED: TD50

Documented TD50 of "O=c1c(O)c(-c2ccc(O)c(O)c2)oc2cc(O)cc(O)c12" : 21 mg/kg/day

----------
- System: rodent lifetime carcinogenesis bioassay, tumor incidence TD50
- ASSAY REMARKS: carcinogenic potency in animals, long-term in vivo studies, CPDB compilation (AID 1745844)
- CONDITION: rat; strain Fischer 344; females; by gavage; site: liver; lesion: neoplastic nodule; dosed 121 weeks; study length 121 weeks
PARAMETER MEASURED: TD50 (mg/kg/day)
Unit mg/kg/day implied. Number only.

Please fill in: TD50 reported for "Cc1ccc(S(=O)(=O)OCCN(C)N=O)cc1" = 22.3

----------
- Test system: rodent lifetime carcinogenesis bioassay, tumor incidence TD50
- ASSAY REMARKS: carcinogenic potency in animals, long-term in vivo studies, CPDB compilation (AID 1745844)
- CONDITION: rat; strain Osborne-Mendel; males; by gavage; site: liver; lesion: hepatocellular carcinoma + neoplastic nodule; dosed 104 weeks; study length 105 weeks
PARAMETER MEASURED: TD50

Record "Clc1cc2c(cc1Cl)Oc1cc(Cl)c(Cl)cc1O2" . Reported TD50: 0.000391 mg/kg/day

----------
- System: rodent lifetime carcinogenesis bioassay, tumor incidence TD50
- ASSAY REMARKS: carcinogenic potency in animals, long-term in vivo studies, CPDB compilation (AID 1745844)
- CONDITION: rat; strain Fischer 344; males; in feed; site: liver; lesion: hepatocellular adenoma; dosed 76 weeks; study length 76 weeks
PARAMETER MEASURED: TD50 (mg/kg/day)
A number alone suffices; assume mg/kg/day.

Form: item "O=[N+]([O-])OCC(CO[N+](=O)[O-])O[N+](=O)[O-]" ; test system rodent lifetime carcinogenesis bioassay, tumor incidence TD50; TD50: 106

----------
- System: rodent lifetime carcinogenesis bioassay, tumor incidence TD50
- ASSAY REMARKS: carcinogenic potency in animals, long-term in vivo studies, CPDB compilation (AID 1745844)
- CONDITION: rat; strain Fischer 344; males; in feed; site: skin; lesion: squamous-cell carcinoma; dosed 103 weeks; study length 104 weeks
PARAMETER MEASURED: TD50

# compound "N=C1C=CC(=C(c2ccc(N)cc2)c2ccc(N)cc2)C=C1" ; its TD50 = 130 mg/kg/day

----------
- Test system: rodent lifetime carcinogenesis bioassay, tumor incidence TD50
- ASSAY REMARKS: carcinogenic potency in animals, long-term in vivo studies, CPDB compilation (AID 1745844)
- CONDITION: mouse; strain Swiss; females; i.p.; site: lung; lesion: several types; types named in the paper; dosed 26 weeks; study length 78 weeks
PARAMETER MEASURED: TD50

Here are 2 compounds together with their reported answers.
- O[C@H]([C@H](O)[C@@H](O)CBr)[C@H](O)CBr: 9.23 mg/kg/day
- O[C@@H]([C@H](O)[C@H](O)CBr)[C@H](O)CBr: 21.4 mg/kg/day

# compound "CN(N=O)C(=O)N[C@@H](C=O)[C@@H](O)[C@H](O)[C@H](O)CO" ; its TD50 = 0.193 mg/kg/day

----------
- System: rodent lifetime carcinogenesis bioassay, tumor incidence TD50
- ASSAY REMARKS: carcinogenic potency in animals, long-term in vivo studies, CPDB compilation (AID 1745844)
- CONDITION: mouse; strain B6C3F1; males; in feed; site: subcutaneous tissue; lesion: fibrosarcoma + fibroma + neurofibrosarcoma + sarcoma, NOS; dosed 103 weeks; study length 104 weeks
Calls of active or inactive are those of the source. No rule for the calls is given here.
PARAMETER MEASURED: TD50

// TD50 lookup, compound = "NC(=O)NN=Cc1ccc([N+](=O)[O-])o1" , result: 154 mg/kg/day (inactive)

----------
- Tested on: rodent lifetime carcinogenesis bioassay, tumor incidence TD50
- ASSAY REMARKS: carcinogenic potency in animals, long-term in vivo studies, CPDB compilation (AID 1745844)
- CONDITION: mouse; strain CD-1 HaM/ICR; males; in feed; site: liver; lesion: several types; types named in the paper; dosed 77 weeks; study length 98 weeks
PARAMETER MEASURED: TD50 (mg/kg/day)
Give your result in mg/kg/day as a bare value.

Please fill in: TD50 reported for "Cc1cc(C)c(N)cc1C" = 35.4

----------
- Tested on: rodent lifetime carcinogenesis bioassay, tumor incidence TD50
- ASSAY REMARKS: carcinogenic potency in animals, long-term in vivo studies, CPDB compilation (AID 1745844)
- CONDITION: mouse; strain AP Alderly Park; females; several routes; site: lung; lesion: adenoma; dosed 78 weeks; study length 78 weeks
PARAMETER MEASURED: TD50 (mg/kg/day)
Respond numerically; units are mg/kg/day and should not be typed.

TD50 reading for "COC(=O)C(C)(C)Oc1ccc(-c2ccc(Cl)cc2)cc1" : 890

----------
- System: rodent lifetime carcinogenesis bioassay, tumor incidence TD50
- ASSAY REMARKS: carcinogenic potency in animals, long-term in vivo studies, CPDB compilation (AID 1745844)
- CONDITION: mouse; strain Swiss; females; in drinking water; site: uterus; lesion: adenocarcinoma; dosed 78 weeks; study length 151 weeks
PARAMETER MEASURED: TD50 (mg/kg/day)
Your answer should be a plain number; it is taken to be in mg/kg/day.

Reported TD50 for "C=COC(C)=O" was 5570

----------
- System: rodent lifetime carcinogenesis bioassay, tumor incidence TD50
- ASSAY REMARKS: carcinogenic potency in animals, long-term in vivo studies, CPDB compilation (AID 1745844)
- CONDITION: mouse; strain Swiss albino; females; in feed; site: lung; lesion: one or several types; types not named; dosed 76 weeks; study length 76 weeks
The source made the active and inactive calls. The rule behind the calls is not given here.
PARAMETER MEASURED: TD50

Kindly note the recorded TD50 for "O=C1NS(=O)(=O)c2ccccc21" , which is 56300 mg/kg/day (inactive)

----------
- System: rodent lifetime carcinogenesis bioassay, tumor incidence TD50
- ASSAY REMARKS: carcinogenic potency in animals, long-term in vivo studies, CPDB compilation (AID 1745844)
- CONDITION: rat; strain Sprague-Dawley; females; by gavage; site: uterus; lesion: squamous-cell carcinoma; dosed 167 weeks; study length 167 weeks
PARAMETER MEASURED: TD50
In your response, the unit should come after the numeric value.

Considering "CC/C(=C(\c1ccccc1)c1ccc(OCCN(C)C)cc1)c1ccccc1" , its TD50 with rodent lifetime carcinogenesis bioassay, tumor incidence TD50 was recorded as 497 mg/kg/day
